# SYSTEM: GST-tagged human ROCK2 catalytic domain 1-553 (Homo sapiens)
# Construct: GST-tagged human ROCK2 catalytic domain 1-553 from Carna Biosciences (Cat #01-110); purchased Carna Biosciences 01-110; host or cells: baculovirus expression system
# Sequence (O75116 1-553): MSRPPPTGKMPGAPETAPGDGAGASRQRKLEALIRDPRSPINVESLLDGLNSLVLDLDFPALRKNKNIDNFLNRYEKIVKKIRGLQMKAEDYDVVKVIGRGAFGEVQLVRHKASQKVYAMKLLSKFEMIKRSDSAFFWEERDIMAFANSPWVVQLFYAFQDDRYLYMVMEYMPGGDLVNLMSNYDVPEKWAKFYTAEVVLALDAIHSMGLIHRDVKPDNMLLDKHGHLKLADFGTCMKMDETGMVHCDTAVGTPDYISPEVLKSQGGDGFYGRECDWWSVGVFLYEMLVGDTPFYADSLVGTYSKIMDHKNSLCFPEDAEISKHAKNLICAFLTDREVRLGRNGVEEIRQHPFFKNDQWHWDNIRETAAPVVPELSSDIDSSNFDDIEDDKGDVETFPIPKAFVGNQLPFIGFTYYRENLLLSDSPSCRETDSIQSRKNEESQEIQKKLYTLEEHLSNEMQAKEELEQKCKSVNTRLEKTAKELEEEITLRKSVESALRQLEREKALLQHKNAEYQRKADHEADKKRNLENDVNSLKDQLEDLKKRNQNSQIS
# ASSAY_REMARKS: Isolated Enzyme Assay, ROCK2 (LANCE Ultra ULight-CREBtide FRET)
# Format: biochemical
# RUN_PARAMETERS: isolated enzyme assay; 30 μM highest concentration tested; read-out: Results from Isolated Enzyme Assay IC50 (μM) ROCK2
Please go through the items and note down their IC50.

Ask | Recorded IC50 of CS(=O)(=O)Nc1cccc(-c2nsc(Nc3ccc4[nH]ncc4c3Cl)n2)c1 [IV-16] , please.
Reply | < 1 µM

Ask | Recorded IC50 of CNC(=O)c1cc(-c2nsc(Nc3ccc4[nH]ncc4c3Cl)n2)cn(C)c1=O [IV-2] , please.
Reply | < 1 µM

Ask | Recorded IC50 of O=C(Nc1cc(-c2nsc(Nc3ccc4[nH]ncc4c3Cl)n2)ccn1)c1cocn1 [IV-96] , please.
Reply | > 30 µM

Ask | Recorded IC50 of Cn1nccc1C(=O)Nc1cc(-c2nsc(Nc3ccc4[nH]ncc4c3Cl)n2)cn(C)c1=O [IV-6] , please.
Reply | < 1 µM

For every listed record, write down its IC50.
1. COc1cccc(C(=O)Nc2cncc(-c3nsc(Nc4ccc5[nH]ncc5c4Cl)n3)c2)c1 [IV-101]
2. Cn1cnc(C(=O)Nc2cc(-c3nsc(Nc4ccc5[nH]ncc5c4Cl)n3)ccn2)c1 [IV-29]
3. CC(C)N1CCN(c2cc(-c3nsc(Nc4ccc5[nH]ncc5c4Cl)n3)ccn2)C1=O [IV-90]
4. Cn1cc(-c2nsc(Nc3ccc4[nH]ncc4c3Cl)n2)cc(NC(=O)c2cnccn2)c1=O [IV-1]
5. Cc1cc(=O)n(-c2cc(-c3nsc(Nc4ccc5[nH]ncc5c4Cl)n3)ccn2)n1C [IV-23]

Reply |
["> 30 µM", "< 1 µM", "< 1 µM", "< 1 µM", "< 1 µM"]

* * *

Please go through the items and note down their IC50.
# SYSTEM: ROCK2 (Homo sapiens)
# Construct: endogenous in cells; host or cells: HAP1 knockout cells
# Sequence (O75116 whole entry): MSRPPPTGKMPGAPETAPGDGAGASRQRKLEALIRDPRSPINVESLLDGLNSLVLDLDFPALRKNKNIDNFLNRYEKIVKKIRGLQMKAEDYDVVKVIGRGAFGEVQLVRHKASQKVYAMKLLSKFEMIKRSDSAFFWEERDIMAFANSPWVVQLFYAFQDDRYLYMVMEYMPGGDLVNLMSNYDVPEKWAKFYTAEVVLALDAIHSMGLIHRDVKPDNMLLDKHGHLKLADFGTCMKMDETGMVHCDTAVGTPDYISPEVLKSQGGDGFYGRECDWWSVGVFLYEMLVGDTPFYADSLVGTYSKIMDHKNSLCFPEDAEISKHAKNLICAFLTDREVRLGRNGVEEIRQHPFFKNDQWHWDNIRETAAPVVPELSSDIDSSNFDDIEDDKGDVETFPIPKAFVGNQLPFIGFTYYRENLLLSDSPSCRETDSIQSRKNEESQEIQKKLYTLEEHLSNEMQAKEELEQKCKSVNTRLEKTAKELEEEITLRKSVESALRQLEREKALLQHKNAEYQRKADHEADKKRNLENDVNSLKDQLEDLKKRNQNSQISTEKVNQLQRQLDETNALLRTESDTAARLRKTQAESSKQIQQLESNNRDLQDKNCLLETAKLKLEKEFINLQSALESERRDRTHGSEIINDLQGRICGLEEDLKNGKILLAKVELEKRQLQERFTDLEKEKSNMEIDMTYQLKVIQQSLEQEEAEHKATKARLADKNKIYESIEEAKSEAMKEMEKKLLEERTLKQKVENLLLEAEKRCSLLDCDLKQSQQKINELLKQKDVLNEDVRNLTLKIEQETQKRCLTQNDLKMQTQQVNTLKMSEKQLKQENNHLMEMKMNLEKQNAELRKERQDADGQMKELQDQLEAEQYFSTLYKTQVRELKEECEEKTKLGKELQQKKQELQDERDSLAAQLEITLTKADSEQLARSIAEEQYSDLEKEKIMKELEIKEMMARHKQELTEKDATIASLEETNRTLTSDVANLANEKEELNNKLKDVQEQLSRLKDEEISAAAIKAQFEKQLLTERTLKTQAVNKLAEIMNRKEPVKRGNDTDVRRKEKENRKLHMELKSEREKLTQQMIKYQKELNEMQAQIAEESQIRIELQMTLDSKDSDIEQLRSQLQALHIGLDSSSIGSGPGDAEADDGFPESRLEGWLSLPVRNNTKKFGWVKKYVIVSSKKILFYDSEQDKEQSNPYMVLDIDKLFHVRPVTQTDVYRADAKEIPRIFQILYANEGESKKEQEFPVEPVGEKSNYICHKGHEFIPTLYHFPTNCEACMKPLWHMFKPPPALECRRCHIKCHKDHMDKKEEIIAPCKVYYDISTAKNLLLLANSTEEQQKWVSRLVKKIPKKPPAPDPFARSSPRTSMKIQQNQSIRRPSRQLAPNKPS
# ASSAY_REMARKS: Cell-Based Assay, ROCK2 (HAP1 knockout cells, phospho-MYPT1 Thr853 ELISA)
# RUN_PARAMETERS: class symbols, read-out: Results from Cell-Based Assay IC50 (μM) ROCK2

As a guide, the following entries are already answered.
Ask | Report IC50 for `CC(C)NC(=O)c1cc(-c2nsc(Nc3ccc4[nH]ncc4c3Cl)n2)ccc1F` tested on ROCK2 (Homo sapiens).
Reply | < 1 µM

Ask | Report IC50 for `Cn1cnc2c(-c3nsc(Nc4ccc5[nH]ncc5c4Cl)n3)cccc21` tested on ROCK2 (Homo sapiens).
Reply | < 1 µM

Ask | Report IC50 for `O=C1OCCN1c1cccc(-c2nsc(Nc3ccc4[nH]ncc4c3Cl)n2)c1` tested on ROCK2 (Homo sapiens).
Reply | < 1 µM

Ask | Report IC50 for `O=C(NC(CO)CO)c1cc(-c2nsc(Nc3ccc4[nH]ncc4c3Cl)n2)ccc1F` tested on ROCK2 (Homo sapiens).
Reply | 1 to 15 µM

Ask | Report IC50 for `CC(C)c1cc(C(=O)Nc2cccc(-c3nsc(Nc4ccc5[nH]ncc5c4Cl)n3)c2)n(C)n1` tested on ROCK2 (Homo sapiens).
Reply | < 1 µM

For every listed record, write down its IC50.
1. C[C@@H]1CN(c2cccc(-c3nsc(Nc4ccc5[nH]ncc5c4Cl)n3)c2)C(=O)O1
2. COc1cccc(C(=O)Nc2cc(C)nc(-c3nsc(Nc4ccc5[nH]ncc5c4Cl)n3)c2)c1
3. COc1ccc(C(=O)Nc2cc(C)nc(-c3nsc(Nc4ccc5[nH]ncc5c4Cl)n3)c2)cc1
4. Cc1coc(-c2cccc(-c3nsc(Nc4ccc5[nH]ncc5c4F)n3)c2)n1

Reply |
< 1 µM
1 to 15 µM
1 to 15 µM
< 1 µM

For every listed record, write down its IC50.
1. O=C(Nc1cccc(-c2nsc(Nc3ccc4[nH]ncc4c3Cl)n2)c1)c1ccccn1
2. Cc1cc(NC(=O)c2cocn2)cc(-c2nsc(Nc3ccc4[nH]ncc4c3Cl)n2)n1
3. Cn1cc(-c2nsc(Nc3ccc4[nH]ncc4c3Cl)n2)cc(NC(=O)c2ccccc2)c1=O
4. Oc1ccn(-c2cccc(-c3nsc(Nc4ccc5[nH]ncc5c4Cl)n3)c2)n1
5. CNC(=O)c1cc(-c2nsc(Nc3ccc4[nH]ncc4c3Cl)n2)cn(C)c1=O
6. CC1(C)CN(c2cccc(-c3nsc(Nc4ccc5[nH]ncc5c4Br)n3)c2)C(=O)O1
7. Cn1ccc(C(=O)Nc2cccc(-c3nsc(Nc4ccc5[nH]ncc5c4Cl)n3)c2)n1
8. CC1(C)CN(c2cccc(-c3nsc(Nc4ccc5[nH]ncc5c4Cl)n3)c2)C(=O)O1

Reply |
1. < 1 µM
2. < 1 µM
3. < 1 µM
4. 1 to 15 µM
5. < 1 µM
6. < 1 µM
7. < 1 µM
8. < 1 µM

For every listed record, write down its IC50.
1. Cn1nccc1C(=O)Nc1cc(-c2nsc(Nc3ccc4[nH]ncc4c3Cl)n2)cn(C)c1=O
2. Cc1coc(-c2cc(-c3nsc(Nc4ccc5[nH]ncc5c4Cl)n3)ccn2)n1
3. Cn1nncc1C(=O)Nc1cccc(-c2nsc(Nc3ccc4[nH]ncc4c3Cl)n2)c1
4. Cc1cc(C(=O)Nc2cncc(-c3nsc(Nc4ccc5[nH]ncc5c4Cl)n3)c2)n(C)n1
5. O=C(Nc1cc(-c2nsc(Nc3ccc4[nH]ncc4c3Cl)n2)ccn1)c1ccccc1F
6. O=C(Nc1cccc(-c2nsc(Nc3ccc4[nH]ncc4c3Cl)n2)c1)c1cc[nH]n1

Reply |
["< 1 µM", "< 1 µM", "< 1 µM", "< 1 µM", "1 to 15 µM", "< 1 µM"]

For every listed record, write down its IC50.
1. Cc1cc(C(=O)Nc2cc(-c3nsc(Nc4ccc5[nH]ncc5c4Cl)n3)ccn2)n(C)n1
2. CC1(C)CN(c2cccc(-c3nsc(Nc4ccc5[nH]ncc5c4C#N)n3)c2)C(=O)O1

Reply |
1: < 1 µM; 2: 1 to 15 µM

For every listed record, write down its IC50.
1. O=C(NC1CCCC1)c1cc(-c2nsc(Nc3ccc4[nH]ncc4c3Cl)n2)ccc1F
2. Cc1nc(C)c(C(=O)Nc2cccc(-c3nsc(Nc4ccc5[nH]ncc5c4Cl)n3)c2)o1

Reply |
["< 1 µM", "< 1 µM"]

For every listed record, write down its IC50.
1. COc1cccc(C(=O)Nc2cc(-c3nsc(Nc4ccc5[nH]ncc5c4Cl)n3)ccn2)c1
2. CCCOC(=O)Nc1cc(-c2nsc(Nc3ccc4[nH]ncc4c3Cl)n2)cn(C)c1=O
3. CNC(=O)c1cccc(-c2nsc(Nc3ccc4[nH]ncc4c3Cl)n2)c1
4. Cn1ccnc1-c1cccc(-c2nsc(Nc3ccc4[nH]ncc4c3Cl)n2)c1
5. Cn1ccnc1C(=O)Nc1cccc(-c2nsc(Nc3ccc4[nH]ncc4c3Cl)n2)c1
6. CC1COCCN1C(=O)Nc1cc(-c2nsc(Nc3ccc4[nH]ncc4c3Cl)n2)ccn1 (centres unmarked)
7. CC(C)N1CCN(c2cc(-c3nsc(Nc4ccc5[nH]ncc5c4Cl)n3)ccn2)C1=O
8. COc1ncc(C(=O)Nc2cccc(-c3nsc(Nc4ccc5[nH]ncc5c4Cl)n3)c2)cn1

Reply |
["< 1 µM", "< 1 µM", "< 1 µM", "1 to 15 µM", "< 1 µM", "< 1 µM", "< 1 µM", "< 1 µM"]

* * *

Please go through the items and note down their IC50.
# SYSTEM: ROCK1 (Homo sapiens, UniProt Q13464)
# Construct: endogenous in cells; host or cells: HAP1 knockout cells
# Sequence (Q13464 whole entry): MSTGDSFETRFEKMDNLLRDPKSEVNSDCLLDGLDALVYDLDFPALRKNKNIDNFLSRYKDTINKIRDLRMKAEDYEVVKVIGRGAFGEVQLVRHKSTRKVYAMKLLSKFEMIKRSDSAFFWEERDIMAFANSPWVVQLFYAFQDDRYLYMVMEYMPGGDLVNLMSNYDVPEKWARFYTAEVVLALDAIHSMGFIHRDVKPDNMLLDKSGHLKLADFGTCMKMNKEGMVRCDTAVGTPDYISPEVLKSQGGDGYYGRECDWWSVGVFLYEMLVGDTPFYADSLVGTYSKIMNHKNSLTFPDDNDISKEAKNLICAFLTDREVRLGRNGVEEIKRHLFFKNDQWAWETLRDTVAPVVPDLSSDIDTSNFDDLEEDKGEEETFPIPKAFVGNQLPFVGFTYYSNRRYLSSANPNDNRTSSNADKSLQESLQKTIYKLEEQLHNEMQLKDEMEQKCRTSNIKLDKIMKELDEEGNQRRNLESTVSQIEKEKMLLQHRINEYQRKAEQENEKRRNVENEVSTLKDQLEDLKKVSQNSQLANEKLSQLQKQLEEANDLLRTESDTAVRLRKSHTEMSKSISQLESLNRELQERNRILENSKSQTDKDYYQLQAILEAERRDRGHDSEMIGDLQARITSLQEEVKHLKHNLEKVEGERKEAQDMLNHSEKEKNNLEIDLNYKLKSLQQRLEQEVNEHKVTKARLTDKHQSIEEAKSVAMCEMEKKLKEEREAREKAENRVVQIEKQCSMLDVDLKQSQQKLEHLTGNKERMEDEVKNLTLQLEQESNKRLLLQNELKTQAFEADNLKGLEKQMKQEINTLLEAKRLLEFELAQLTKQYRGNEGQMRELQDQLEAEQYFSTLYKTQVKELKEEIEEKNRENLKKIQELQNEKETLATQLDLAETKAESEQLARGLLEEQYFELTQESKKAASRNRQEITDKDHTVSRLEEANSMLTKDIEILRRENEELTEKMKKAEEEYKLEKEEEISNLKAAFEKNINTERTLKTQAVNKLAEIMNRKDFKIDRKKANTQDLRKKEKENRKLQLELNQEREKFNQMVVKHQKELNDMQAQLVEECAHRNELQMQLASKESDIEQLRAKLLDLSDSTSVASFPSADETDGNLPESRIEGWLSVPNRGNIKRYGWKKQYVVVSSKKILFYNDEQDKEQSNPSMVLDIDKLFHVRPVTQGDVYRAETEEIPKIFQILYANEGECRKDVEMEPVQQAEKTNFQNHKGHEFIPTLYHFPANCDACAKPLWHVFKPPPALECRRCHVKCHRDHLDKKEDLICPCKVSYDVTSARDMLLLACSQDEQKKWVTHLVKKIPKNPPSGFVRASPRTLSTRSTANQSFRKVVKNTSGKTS
# ASSAY_REMARKS: Cell-Based Assay, ROCK1 (HAP1 knockout cells, phospho-MYPT1 Thr853 ELISA)
# RUN_PARAMETERS: numeric bound, read-out: Results from Cell-Based Assay IC50 (μM) ROCK1

Ask | Recorded IC50 of `Cn1nccc1C(=O)Nc1cc(-c2nsc(Nc3ccc4[nH]ncc4c3Cl)n2)cn(C)c1=O` , please.
Reply | > 10 µM

Ask | Recorded IC50 of `Cn1cc(-c2nsc(Nc3ccc4[nH]ncc4c3Cl)n2)cc(NC(=O)c2ccccc2F)c1=O` , please.
Reply | > 10 µM

From here, focus on the item given below.
Ask | Recorded IC50 of `Cn1nncc1C(=O)Nc1cccc(-c2nsc(Nc3ccc4[nH]ncc4c3Cl)n2)c1` , please.
Reply | > 10 µM

* * *

# SYSTEM: GST-tagged human ROCK1 catalytic domain 1-477 (Homo sapiens)
# Construct: human ROCK1 catalytic domain 1-477 from Carna Biosciences (cat #01-109); purchased Carna Biosciences 01-109; host or cells: baculovirus expression system
# Sequence (Q13464 1-477): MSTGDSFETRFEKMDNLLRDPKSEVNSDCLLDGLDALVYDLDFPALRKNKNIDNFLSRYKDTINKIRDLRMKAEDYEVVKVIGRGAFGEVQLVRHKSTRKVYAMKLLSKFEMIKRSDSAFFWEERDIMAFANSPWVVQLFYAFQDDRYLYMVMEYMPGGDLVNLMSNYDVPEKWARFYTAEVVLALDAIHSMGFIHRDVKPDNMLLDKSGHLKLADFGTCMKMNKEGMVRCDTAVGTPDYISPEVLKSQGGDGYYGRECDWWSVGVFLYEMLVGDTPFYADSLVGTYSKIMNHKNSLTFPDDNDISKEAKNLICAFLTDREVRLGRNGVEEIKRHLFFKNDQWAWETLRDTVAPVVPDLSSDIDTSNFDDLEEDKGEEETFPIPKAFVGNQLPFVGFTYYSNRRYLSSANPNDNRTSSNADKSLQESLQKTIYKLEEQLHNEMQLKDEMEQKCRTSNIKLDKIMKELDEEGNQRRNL
# ASSAY_REMARKS: Isolated Enzyme Assay, ROCK1 (LANCE Ultra ULight-CREBtide FRET)
# Assay type: biochemical
# RUN_PARAMETERS: isolated enzyme assay; 30 μM highest concentration tested; read-out: Results from Isolated Enzyme Assay IC50 (μM) ROCK1
# Protocol: Exemplary compounds were tested for ability to inhibit Rho-associated protein kinase isoform 1 (ROCK1) and Rho-associated protein kinase isoform 2 (ROCK2). Assay procedures and results are described below. […] Protein constructs were purified from a baculovirus expression system. […] The fluorescence resonance energy transfer (FRET) signals were read and analyzed on an Envision™ 2103 Multilabel Reader (Perkin Elmer). […]
Please go through the items and note down their IC50.

As a guide, the following entries are already answered.
Ask | Recorded IC50 of Cc1cc(NC(=O)c2cocn2)cc(-c2nsc(Nc3ccc4[nH]ncc4c3Cl)n2)n1 [IV-19] , please.
Reply | < 1 µM

Ask | Recorded IC50 of O=C(Nc1cccnc1)c1cccc(-c2nsc(Nc3ccc4[nH]ncc4c3Cl)n2)c1 [IV-65] , please.
Reply | < 1 µM

Ask | Recorded IC50 of O=C(Cn1cc(Cl)cn1)Nc1cccc(-c2nsc(Nc3ccc4[nH]ncc4c3Cl)n2)c1 [IV-104] , please.
Reply | > 30 µM

For every listed record, write down its IC50.
1. COc1cccc(C(=O)Nc2cc(C)nc(-c3nsc(Nc4ccc5[nH]ncc5c4Cl)n3)c2)c1 [IV-44]
2. CC1COCCN1C(=O)Nc1cc(-c2nsc(Nc3ccc4[nH]ncc4c3Cl)n2)ccn1 (centres unmarked) [IV-38]
3. CNC(=O)c1cccc(-c2nsc(Nc3ccc4[nH]ncc4c3Cl)n2)c1 [IV-107]
4. O=C(Nc1cccc(-c2nsc(Nc3ccc4[nH]ncc4c3Cl)n2)c1)c1nc(O)co1 [IV-79]
5. O=C(Nc1cccc(-c2nsc(Nc3ccc4[nH]ncc4c3Cl)n2)c1)c1cc[nH]n1 [IV-75]

Reply |
> 30 µM
< 1 µM
< 1 µM
< 1 µM
< 1 µM
